target: T1, HLA-DR DRB1*1201 (human); experiment: radioligand inhibition, purified HLA-DR; conditions: remark: other sources report otherwise
T1 chain 1: not shown
T1 chain 2: not shown
Threshold 2 µM: IC50 strictly smaller gives class 1, otherwise class 0.

binder	category_label
TAKLTIESTPFNVAE [CEA.33 peptide 9019.0106]	class 0
HNQVRQVPLQRLRIV [Her/neu.88]	class 1
LLTFWNPPTTAKLTI [CEA.24 peptide 9019.0105]	class 0
RWCIPWQRLLLTASL [CEA.10 peptide 9019.0104]	class 1
APTIRGDPECHLFYN [Peptide 9019.0022]	class 0
CHLFYNEQQEARGVH [Peptide 9019.0023]	class 1
